# procedure.text: yeast display, Sf9 membrane polyspecificity reagent, FACS + sequencing; frameworks hold sequencing errors
measured.quantity: polyreactivity (PSR sort gate)

// solved cases for polyreactivity (PSR sort gate) follow
QVQHVESGRGLVQAGGSLRLSCDASGFTFRSYPIGWYRHAPGKERELVAGITWRGGRTYYADSVKGRFTISRDNAKNTVYLQMNSLKPEDTAVYNCAKLYRYIYGGMDYWGQGTQVTVSS | high polyreactivity
QVQLVESGGGLVQAGGSLRLSCDASGSTFNKYAMGWYRQAPGKERELVAAITTSGGRTTYADSVKGRFTISRDNAKNTVYVQMNSLKPEDTEVYYCAARYYIHRGYDYDYWGQGTQVSVSS | high polyreactivity
QVQLVESGGGLVQAGGSLRLSCAASGFTFVPHTMGWYRQAPGKERELVAGINYGVGSTYYADSVKGRFTISRDNAMNTVYLQMNSLKPEDTAVYYCAADIVYLYGLLYYWGQGTQVTVSS | low polyreactivity
QVQLVESGGGLVQAGGSLRLSCAASGIIFPSYDMGWYRQAPGKERELVAGITDGGDTTYADSVKWRFTISRDNAKNTVYLQMNSLKPEDTAVYYCAADIGYGYWHFDYWGQGTQVTVSW | low polyreactivity
QVQLVESGGGLVQAGGSLRLSCAASGRIFLINAMGWYRQAPGKERELVAAITSSGGSTYYADSVKGRFTISRDNAKNTVYLQMNSLKPEDTAVYYCATRSYRGRPYNYWGQGTQVTVSS | high polyreactivity

Reported polyreactivity (PSR sort gate) of QVQLVESGGGLVQAGGSLRLSCAASGITFHKYAMGWYRQAPGKESELVAAISSGGGTYYADSVKGRFTISRDNAKNTVYLQMNSLKPEDTAVYYCNADIEWLWVRYDYWGQGTQVTVSS : high polyreactivity
